Data credit: PubChem BioAssay (NCI)

Tested on: RXF-631 renal
METHOD DESCRIPTION: NCI tumour cell line growth inhibition, 48 h
Assign TGI to each entry below.

Record summary for CC(C)C1CN(C(=O)OCc2ccccc2)C2N1C(=O)C2(C)OCc1ccccc1 (stereo not drawn) : reported TGI = > 100 µM

Value of TGI reported for the molecule CCOC(=O)/C=C1/C(CCCOCc2ccccc2)C2CCCC23CC2(CCN13)OCCO2 (stereo not drawn) is 94.6 µM

The recorded TGI for `COc1ccc(/C=C\c2cc(OC)c(OC)c(OC)c2)cc1OCC(=O)O` is > 100 µM

TGI reading for `CC(C)=CCC1=C(O)c2ccccc2C(=O)C1=O` : > 100 µM

Record O/N=C1\CCCCC1C(NO)c1ccccc1 (stereo not drawn) . Reported TGI: > 100 µM

Lab note: `O=C1c2cccc3cccc(c23)C(=O)N1CCN(CCO)CCO` gave TGI of > 100 µM

Looking up `CC1=C(C(=O)Nc2ccccc2)C(c2ccc(Cl)c(Cl)c2)C(C(=O)Nc2ccccc2)=C(C)N1` , I found its TGI recorded as 27.7 µM

Entry `C[N+](C)(C)CC(=O)N/N=C(/Cc1cc(=O)oc2cc(O)ccc12)C(=O)Nc1ccc(Cl)cc1` ; TGI = > 100 µM

----------
Could you please report measured TGI for the items listed next?
Tested on: HOP-62 NSCLC
METHOD DESCRIPTION: NCI tumour cell line growth inhibition, 48 h
I only need the number, in µM, no unit after it.

Query OC(C#CCN1CCCC1)(c1ccccc1)c1ccccc1Cl (stereo unspecified) yields TGI of 38.7

// field: TGI; key: `CN1CC[C@]2(c3cccc(O)c3)CC(=O)/C(=C/c3ccccc3)[C@@H]1C2` ; value = 12.7

Kindly note the recorded TGI for `COc1ccc(CNc2c3ccccc3nc3ccccc23)cc1F` , which is 20.5

# molecule COc1cc2c(cc1OCCCCCN1CCN(c3ncnc4ccccc34)CC1)N=CC1CCCN1C2=O (stereo unspecified) ; its TGI = 0.358

# TGI of CCOC(=O)C(Br)=C1OC(=O)c2ccccc2-c2ccccc21 (mixture of isomers) = 37.4

`CC(=O)N/C(=C\c1ccccc1/C=C(\NC(C)=O)c1nc2cc(C)c(C)cc2[nH]1)c1nc2cc(C)c(C)cc2[nH]1` has a reported TGI of 68.6

# TGI (molecule: `CCCCCCn1c(-c2ccc(C(=O)O/N=C(\N)c3ccc4c(c3)OCO4)cc2)nc(-c2ccccc2)c1-c1ccccc1` ) is 4.71

----------
Tested on: RXF 393 renal
METHOD DESCRIPTION: NCI tumour cell line growth inhibition, 48 h
ASSAY ENDPOINT: TGI (µM)
// units = µM; emit number, no label

Item: `CC1(C)CCc2c(ccc(C(=O)/C=C/c3ccc(O)cc3)c2O)O1` | TGI: 20.4

Query `C[C@H](CCOc1cccc(CC(=O)O)c1)N(Cc1cccc(C(F)(F)F)c1Cl)CC(c1ccccc1)c1ccccc1` yields TGI of 16.2

----------
Please go through the items and note down their TGI.
Tested on: MDA-MB-231 breast
METHOD DESCRIPTION: NCI tumour cell line growth inhibition, 48 h

Notebook: `COc1cccc2c1O/C(=C\c1ccc([N+](=O)[O-])s1)C2=O` , TGI read as 2920 nM

Note to self: TGI recorded for `CCCCOCCOC1=C(Cl)C(=O)c2c(O)ccc(O)c2C1=O` was 1070 nM

For reference, reported TGI for `CNc1nc(N)nc(Nc2ccc(I)cc2)c1N=O` stands at > 100000 nM

----------
System: TK-10 renal
METHOD DESCRIPTION: NCI tumour cell line growth inhibition, 48 h
ASSAY ENDPOINT: TGI

Summary for this compound, `CC(C)=CCC1=C(O)c2ccccc2C(=O)C1=O` : TGI is > 100 µM

TGI for C=CC12CCN(CC1)C(C(O)c1ccnc3ccc(OC)cc13)C2 (stereo not drawn) is > 100 µM

Summary for this compound, `CCCCCCCCc1cc2c(O)c(c1)Cc1cc(CCCCCCCC)cc(c1O)Cc1cc(CCCCCCCC)cc(c1O)Cc1cc(CCCCCCCC)cc(c1O)Cc1cc(CCCCCCCC)cc(c1O)Cc1cc(CCCCCCCC)cc(c1O)C2` : TGI is > 100 µM

----------
System: MOLT-4 leukemia
METHOD DESCRIPTION: NCI tumour cell line growth inhibition, 48 h
ASSAY ENDPOINT: TGI (µM)
Dear colleague, please return just the value in µM, with no unit written.

Measured TGI of `Cc1ccc2c(c1)c1ccc3c(c1n2C)C(=O)C=CC3=O` : 2.19

# TGI (molecule: `C=C(C)[C@@H]1CC[C@]2(CN)CC[C@]3(C)[C@H](CC[C@@H]4[C@@]5(C)CCCNC(C)(C)[C@@H]5CC[C@]43C)[C@@H]12` ) is 4.47

Measured TGI of `COC(=O)C1=CN(CC2=CC(=O)C(C)=CC2=O)C=C(C(=O)OC)C1c1ccccc1OC` : 14.2

Entry under test: `CCCN(CCC)c1c([N+](=O)[O-])cc(C(=O)N(CC)CC)cc1[N+](=O)[O-]` . Its TGI was 50

For this molecule ( `O=C(OCC(Cl)(Cl)Cl)N1CC[C@H](C2CCCCC2)C1` ), measured TGI is 50.5

response.value for CC(C)N1CCN(c2ccc(OCC3COC(Cn4cncn4)(c4ccc(Cl)cc4Cl)O3)cc2)CC1 (centres undefined) (field: TGI) = 28.8

GET /value?item= `CCCC(=O)OC[n+]1ccc2c(C)c3[nH]c4ccccc4c3c(C)c2c1` &field=TGI returns 3.04

// `CC(C)Oc1cccc(N2C(=NCc3c[nH]c4ccccc34)Nc3ccncc3S2(=O)=O)c1` : TGI value = 96.7

Data point: `CCN(Cc1c(F)cccc1OC)c1ccc(CO)c(Cl)c1` ; TGI = 52.3

Looking up `COC(=O)c1c2c(c(C)[n+]([O-])c1C)C(=O)C(NCc1ccc(Br)cc1)=CC2=O` , I found its TGI recorded as 4.74

Data point: `COc1ccc(-c2cc(=O)oc3c4c(ccc23)OCN(Cc2ccc(F)cc2)C4)cc1` ; TGI = 58.3

The measured TGI associated with `CN(C)Cc1cc(C(=O)/C=C/c2ccc([N+](=O)[O-])cc2)cc(CN(C)C)c1O` reads 51.2

Just so you know, measured TGI for COc1cc(C2c3cc4c(cc3[C@@H](Nc3ccccc3)C3COC(=O)[C@H]23)OCO4)cc(OC)c1O (some centres undefined) came out at 0.13

Short answer for `CNCCCNc1ccnc2cc(Cl)ccc12` : TGI was 69.9

----------
Tested on: CCRF-CEM leukemia
METHOD DESCRIPTION: NCI tumour cell line growth inhibition, 48 h
ASSAY ENDPOINT: TGI

Note to self: TGI recorded for `CC1=C(C(=O)Nc2ccccc2)C(c2ccc(Cl)c(Cl)c2)C(C(=O)Nc2ccccc2)=C(C)N1` was 71.4 µM

Lab note: `Cc1ccnc(NC(=S)Nc2ccc([N+](=O)[O-])cc2)c1` gave TGI of > 100 µM

CCOC(=O)C(NC(=O)CC)(N1CCN(c2cc3c(cc2F)c(=O)c(C(=O)O)cn3C2CC2)CC1)C(F)(F)F (stereo not given) yielded TGI of > 100 µM

Measured TGI of `NC(N)=Nc1nc2ccccc2o1` : > 100 µM

For `CNc1nc(N)nc(Nc2ccc(I)cc2)c1N=O` the compound record lists TGI as > 100 µM

----------
Test system: MALME-3M melanoma
METHOD DESCRIPTION: NCI tumour cell line growth inhibition, 48 h
ASSAY ENDPOINT: TGI

Data point: `CNc1nc(N)nc(Nc2ccc(I)cc2)c1N=O` ; TGI = > 100 µM

`Nc1c(C(=O)Nc2ccccn2)sc2nc3c(cc12)C(=O)CCC3` has a reported TGI of > 100 µM

For record `CC(C)(CO)CNc1nc(N)nc(Cl)c1/C=N/O` the listed TGI is > 100 µM

----------
Test system: M14 melanoma
METHOD DESCRIPTION: NCI tumour cell line growth inhibition, 48 h; in the data active = GI50 below about 0.43 µM; inactive = the rest
Your response should consist of one outcome taken from active, inactive

Lab log entry: N#CC(I)CS(=O)(=O)c1ccccc1 (stereo not drawn) — outcome as called in the assay?
inactive

Please let me know the test result on file for `COc1cc2c(cc1OCCCN1CCN(CCCOc3cc4c(cc3OC)C(=O)N3CC(F)(F)C[C@H]3C=N4)CC1)N=C[C@@H]1CC(F)(F)CN1C2=O` .
inactive

Recorded test outcome, item `NC(=O)c1cc(I)ccc1NC(=O)/C=C/c1ccccc1`
active

Record request — test call for `CCN(CCNS(C)(=O)=O)c1ccc(N)c(C)c1`
inactive

How was `Cc1nc2c(Br)cc(Br)cc2c(=O)n1-c1nnc(-c2cccc(Cl)c2Cl)c(N)n1` classified in this test?
inactive

Entry `CCOC(=O)Nc1c(C)nc2ccccn12` : call = ?
inactive

Please indicate how the test categorized `NNc1ncnc2nc[nH]c12` .
inactive

Check the results log: what was the call for `COC(=O)C1=CN(CC2=CC(=O)C(C)=CC2=O)C=C(C(=O)OC)C1c1ccccc1OC` ?
inactive

Just curious, what result did Nc1nc(Cl)nc2c1ncn2C1CC(O)C(CO)O1 (stereo not drawn) get here?
active

In this assay, the call recorded for `COC(=O)c1c2c(c(C)[n+]([O-])c1C)C(=O)C(NCc1ccc(Br)cc1)=CC2=O` was what?
inactive

What was the test verdict on `CCCCCCn1c(-c2ccc(C(=O)O/N=C(\N)c3ccc4c(c3)OCO4)cc2)nc(-c2ccccc2)c1-c1ccccc1` ?
inactive

What was the test verdict on `Cc1cccc(NC2=C(Cl)C(=O)c3nc(C)ccc3C2=O)c1` ?
inactive

Test call for this molecule, please: `CNCCCNc1ccnc2cc(Cl)ccc12`
inactive
